Provenance of the data: paper PMC7351026

assay: Individual serum elimination rate and half-life (linear regression per employee); details: individual estimate, subject 16, 5 samples
Mark condition met only when HL (half-life) stays strictly below 0.6 year. Values equal to the cut-off are condition not met.

Solved cases below.
> print(dat)
                               input.smiles              group
1  O=S(=O)(O)C(F)(F)C(F)(F)C(F)(F)C(F)(F)C(F)(F)C(F)(F)C(F)(F)F  condition not met
2  O=S(=O)(O)C(F)(F)C(F)(F)C(F)(F)C(F)(F)C(F)(F)F  condition not met
3   O=S(=O)(O)C(F)(F)C(F)(F)C(F)(F)C(F)(F)F      condition met

# next compound below
Data request: Is HL (half-life) strictly under 0.6 year for the entry O=S(=O)(O)C(F)(F)C(F)(F)C(F)(F)C(F)(F)C(F)(F)C(F)(F)C(F)(F)C(F)(F)F ?
Data returned: condition not met

* * *

experiment: Urine/serum ratio in paired samples; type: in vivo, human; conditions: mean of four paired samplings per subject, 17 airport employees
assay-metric: Personal average urine/serum ratio, median (range)

Please give Personal average urine/serum ratio, median (range), item by item, for the list that follows.
1. O=C(O)C(F)(F)C(F)(F)C(F)(F)C(F)(F)C(F)(F)C(F)(F)F
2. O=S(=O)(O)C(F)(F)C(F)(F)C(F)(F)C(F)(F)C(F)(F)C(F)(F)C(F)(F)C(F)(F)F [L-PFOS, linear perfluorooctane sulfonic acid]
3. O=S(=O)(O)C(F)(F)C(F)(F)C(F)(F)C(F)(F)C(F)(F)F
4. O=S(=O)(O)C(F)(F)C(F)(F)C(F)(F)C(F)(F)C(F)(F)C(F)(F)F
5. O=S(=O)(O)C(F)(F)C(F)(F)C(F)(F)C(F)(F)C(F)(F)C(F)(F)C(F)(F)C(F)(F)F [PFOS, perfluorooctane sulfonic acid]

Data returned:
["0.086 (0.018–0.32)", "0.00092 (0.000035–0.0056)", "0.0089 (0.0057–0.026)", "0.00093 (0.0006–0.0018)", 0.00092]

* * *

experiment: Individual serum elimination rate and half-life (linear regression per employee); details: individual estimate, subject 13, 5 samples
Please assign a class to every record based on measured Elimination rate, with ranges range 1: < 0.2 yearly; range 2: ≥ 0.2 yearly and < 1 yearly; range 3: ≥ 1 yearly

compound	group
O=C(O)C(F)(F)C(F)(F)C(F)(F)C(F)(F)C(F)(F)C(F)(F)F [PFHpA, perfluoroheptanoic acid]	range 3
O=C(O)C(F)(F)C(F)(F)C(F)(F)C(F)(F)C(F)(F)C(F)(F)C(F)(F)F [PFOA, perfluorooctanoic acid]	range 2
O=S(=O)(O)C(F)(F)C(F)(F)C(F)(F)C(F)(F)F [PFBS, perfluorobutane sulfonic acid]	range 3
O=S(=O)(O)C(F)(F)C(F)(F)C(F)(F)C(F)(F)C(F)(F)C(F)(F)C(F)(F)F [PFHpS, perfluoroheptane sulfonic acid]	range 1
O=C(O)C(F)(F)C(F)(F)C(F)(F)C(F)(F)C(F)(F)F [PFHxA, perfluorohexanoic acid]	range 1

Data request: Please report the category associated with O=S(=O)(O)C(F)(C(F)(F)F)C(F)(F)C(F)(F)C(F)(F)C(F)(F)C(F)(F)C(F)(F)F (stereo not drawn) [1m-PFOS, perfluoro-1-methylheptanesulfonate] , nothing else.
Data returned: range 3

Data request: Then what about the compound O=S(=O)(O)C(F)(F)C(F)(F)C(F)(F)C(F)(F)C(F)(F)C(F)(F)F [PFHxS, perfluorohexane sulfonic acid] ?
Data returned: range 2

Data request: Then what about the compound O=S(=O)(O)C(F)(F)C(F)(F)C(F)(F)C(F)(F)C(F)(F)F [PFPeS, perfluoropentane sulfonic acid] ?
Data returned: range 2
